Assay: Phase I study: pharmacokinetics after single and multiple oral doses
Type: in vivo
Details: human, plasma, po, 50 mg, single dose 50 mg, oral solution
reported.endpoint: Tmax (h)
Give the quantity in h, number only.

Return Tmax (reported value) for this compound: CCOc1ccc(-c2ccc(Cn3c(CC(C)(C)C(=O)[O-])c(SC(C)(C)C)c4cc(OCc5ccc(C)cn5)ccc43)cc2)cn1.[Na+] 2.2

====

Assay: Phase I study: pharmacokinetics after single and multiple oral doses
Format: in vivo
Conditions: human, plasma, po, 600 mg, single dose 600 mg, oral solution
reported.endpoint: Tmax (h)
Respond with the bare value in h.

Please look at this molecule and report its Tmax: CCOc1ccc(-c2ccc(Cn3c(CC(C)(C)C(=O)[O-])c(SC(C)(C)C)c4cc(OCc5ccc(C)cn5)ccc43)cc2)cn1.[Na+] 2.3
